# Tested on: Caco-2
Where a SMILES comes first, the peptide text is derived from it. Bridges are numbered along the chain shown (N, C = ends). [ ]: non-standard residue; d: D form. The star is where a group is joined. NMeF = CN[C@@H](Cc1ccccc1)C(=O)O; NMeI = CC[C@H](C)[C@H](NC)C(=O)O; NMeL = CN[C@@H](CC(C)C)C(=O)O; NMeV = CN[C@H](C(=O)O)C(C)C; Piperidide = C1CCN(*)CC1; X2 = Fc1cncc(C*)c1; Sar = CNCC(=O)O
parameter: Caco-2 (cm/s)

• CC[C@H](C)[C@H]1C(=O)N[C@@H]([C@@H](C)O)C(=O)N(C)CC(=O)N(C)[C@@H](CC(C)C)C(=O)N[C@H](C(=O)N2CCCCC2)CC(=O)N(C)[C@@H](C(C)C)C(=O)N[C@@H](COCc2cncc(F)c2)C(=O)N(C)[C@@H](CC(C)C)C(=O)N(C)[C@@H](Cc2ccccc2)C(=O)N[C@@H](CC(C)C)C(=O)N(C)[C@@H](Cc2ccccc2)C(=O)N1C [pd181] ([NMeV]S(X2)[NMeL][NMeF]L[NMeF][NMeI]T[Sar][NMeL]D-Piperidide; lactam N-11) = 1.1e-06

====

# assay.overview: in vitro
# test.parameters: human, Caco-2, Caco-2 (cm/sec)
*1 amine or outer side, *2 acyl side, *3 side chain or, on linkers, in order; H or OH if unused. Where a SMILES comes first, the peptide text is derived from it. Bridges are numbered along the chain shown (N, C = ends). [ ]: non-standard residue; d: D form. The star is where a group is joined. ξ: configuration not given here. Phe(3-OMe,4-CONHMs) = COc1cc(C[C@H](N)C(=O)O)ccc1C(=O)NS(C)(=O)=O; dhPhe(4-CONHMe,3-OMe) = CNC(=O)c1ccc(CC[C@@H](N)C(=O)O)cc1OC; NMePhe(3-Cl) = CN[C@@H](Cc1cccc(Cl)c1)C(=O)O; NMeW = CN[C@@H](Cc1c[nH]c2ccccc12)C(=O)O; X9 = O=C([C@@H](CN[*:1])COCCO)[*:2]; NMeF = CN[C@@H](Cc1ccccc1)C(=O)O; NMeGABA = CN(CCCC(=O)[*:2])[*:1]; NMeI = CC[C@H](C)[C@H](NC)C(=O)O; NMeL = CN[C@@H](CC(C)C)C(=O)O; NMeV = CN[C@H](C(=O)O)C(C)C; NMeA = CN[C@@H](C)C(=O)O; Piperidide = C1CCN(*)CC1; CH2CMe2OH = CC(C)(O)C*; NBuGly = CCCCNCC(=O)O; ξL = CC(C)CC(N)C(=O)O; NPrGly = CCCNCC(=O)O; Sar = CNCC(=O)O; tBu = CC(C)(C)*
Output Satisfied for records whose Papp is lower than 0.4 ×10⁻⁶ cm/s, Not satisfied for records at or above 0.4 ×10⁻⁶ cm/s.

- CC[C@H](C)[C@@H]1NC(=O)[C@H](CC(C)C)N(C)C(=O)CCCN(C)C(=O)C[C@@H](C(=O)N2CCCCC2)NC(=O)[C@H](CC(C)C)N(C)C(=O)[C@H](CC(C)C)N(C)C(=O)[C@H]([C@@H](C)O)NC(=O)[C@H](CC(C)C)N(C)C(=O)[C@H](COCCO)CNC(=O)[C@H](CC(C)C)N(C)C(=O)[C@H](Cc2cccc(Cl)c2)N(C)C1=O [AP130] ([NMeGABA][NMeL]I[NMePhe(3-Cl)][NMeL][X9][NMeL]T[NMeL][NMeL]D-Piperidide; lactam N-11): Not satisfied
- CC[C@H](C)[C@@H]1NC(=O)[C@H](CC(C)C)N(C)C(=O)CCCN(C)C(=O)C[C@@H](C(=O)N2CCCCC2)NC(=O)[C@H](CC(C)C)N(C)C(=O)[C@H](CC(C)C)N(C)C(=O)[C@H]([C@@H](C)O)NC(=O)[C@H](CC(C)C)N(C)C(=O)[C@H](COC(C)(C)C)NC(=O)[C@H](Cc2c[nH]c3ccccc23)N(C)C(=O)[C@H](Cc2ccccc2)N(C)C1=O [pd107] ([NMeGABA][NMeL]I[NMeF][NMeW]S(tBu)[NMeL]T[NMeL][NMeL]D-Piperidide; lactam N-11): Satisfied
- CCCN1CC(=O)N(C)[C@@H](CC(C)C)C(=O)N[C@H](C(=O)N2CCCCC2)CC(=O)N(C)[C@@H](C)C(=O)N[C@@H](COCC(C)(C)O)C(=O)N(C)[C@@H](CC(C)C)C(=O)N(C)[C@@H](Cc2ccccc2)C(=O)N[C@@H](CC(C)C)C(=O)N(C)[C@@H](Cc2ccccc2)C(=O)N(C)[C@@H]([C@@H](C)CC)C(=O)N[C@@H]([C@@H](C)O)C1=O [AP05] ([NMeA]S(CH2CMe2OH)[NMeL][NMeF]L[NMeF][NMeI]T[NPrGly][NMeL]D-Piperidide; lactam N-11): Not satisfied
- CCCCN1CC(=O)N(C)[C@@H](Cc2ccccc2)C(=O)N(C)[C@@H](CC(C)C)C(=O)N[C@H](CCc2ccc(C(=O)NC)c(OC)c2)C(=O)N(C)[C@@H](CC(C)C)C(=O)N[C@H](C(=O)N2CCCCC2)CC(=O)N(C)CC(=O)N(C)[C@@H](CC(C)C)C(=O)N[C@@H]([C@@H](C)CC)C(=O)N(C)[C@@H](CC(C)C)C(=O)N[C@@H]([C@@H](C)O)C1=O [AP215] ([Sar][NMeL]I[NMeL]T[NBuGly][NMeF][NMeL][dhPhe(4-CONHMe,3-OMe)][NMeL]D-Piperidide; lactam N-11): Not satisfied
- COc1cc(C[C@@H]2NC(=O)[C@H](C(C)C)N(C)C(=O)[C@H](CC(C)C)N(C)C(=O)C(CC(C)C)NC(=O)[C@H](CC(C)C)N(C)C(=O)[C@H](CC(C)C)N(C)C(=O)[C@H](C)NC(=O)[C@H](CC(C)C)N(C)C(=O)C[C@@H](C(=O)N3CCCCC3)NC(=O)[C@H](CC(C)C)N(C)C(=O)CN(C)C2=O)ccc1C(=O)NS(C)(=O)=O (stereo partly drawn) [AP142] ([NMeL]A[NMeL][NMeL][ξL][NMeL][NMeV][Phe(3-OMe,4-CONHMs)][Sar][NMeL]D-Piperidide; lactam N-11): Not satisfied

Taken from patent US20230096766A1.
